# System: Escherichia coli TOP10
# Measurement Description: shrunken log2 fold change of peptide-encoding DNA abundance (4.5 h post-induction vs induction); higher = less antimicrobial activity (less host growth inhibition)
# Experimental Setup: time post-induction: 4.5 h; library: site-saturation at positions 5, 18, 19, 20
Quick list: shrunken log2 fold change per entry.
Please reply with the number alone, leaving off any unit.

Input Sequence: RRIRRRPPRLPRPRPRPDACPRP
Test Readout: shrunken log2 fold change
Val: 0.00716

Report shrunken log2 fold change under test system Escherichia coli TOP10 for `RRIRQRPPRLPRPRPRPTFHPRP` .
0.199

Lab note: Escherichia coli TOP10 assay, enter shrunken log2 fold change for `RRIRGRPPRLPRPRPRPPRYPRP` here
0.701

Print Escherichia coli TOP10 shrunken log2 fold change for `RRIRWRPPRLPRPRPRPEWGPRP` .
0.47

GET shrunken log2 fold change where system = Escherichia coli TOP10 and item = `RRIRQRPPRLPRPRPRPIKWPRP`
0.00957

----------
# Test system: Escherichia coli TOP10
# Measurement Description: shrunken log2 fold change of peptide-encoding DNA abundance (4.5 h post-induction vs induction); higher = less antimicrobial activity (less host growth inhibition)
# Experimental Setup: time post-induction: 4.5 h; library: site-saturation at positions 5, 18, 19, 20
// values below are reported shrunken log2 fold change
Simply state the number, no unit and no words.

Previously resolved entries follow.
Input Sequence: RRIRTRPPRLPRPRPRPAFPPRP
shrunken log2 fold change: 0.0262
--
Input Sequence: RRIRRRPPRLPRPRPRPKMIPRP
shrunken log2 fold change: 0.103
--
Input Sequence: RRIRWRPPRLPRPRPRPNLHPRP
shrunken log2 fold change: -0.269

Tell me its shrunken log2 fold change given `RRIRSRPPRLPRPRPRPRCCPRP` as the entry.
-0.00537

----------
Listing of entries alongside the reported shrunken log2 fold change.
# Tested on: Escherichia coli TOP10;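 also: peptides expressed intracellularly from a pBAD plasmid library in pooled LB shake-flask culture, induced with 0.3% L-arabinose, DNA abundance read by NGS, three biological replicates, DESeq2 with apeglm shrinkage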
# Measurement Description: shrunken log2 fold change of peptide-encoding DNA abundance (4.5 h post-induction vs induction); higher = less antimicrobial activity (less host growth inhibition)
# Experimental Setup: time post-induction: 4.5 h; library: site-saturation at positions 5, 18, 19, 20
I only need the number, thanks.

Example results:
Input Sequence: RRIRYRPPRLPRPRPRPMLTPRP
Val: -0.0378
--
Input Sequence: RRIRARPPRLPRPRPRPYIRPRP
Val: -0.406
--
Input Sequence: RRIRPRPPRLPRPRPRPHYAPRP
Val: -0.15

Respond only with shrunken log2 fold change recorded for `RRIRGRPPRLPRPRPRPITWPRP`
-0.0883

Fill in shrunken log2 fold change for record `RRIRSRPPRLPRPRPRPHKKPRP`
-0.0645

Give shrunken log2 fold change for the following sequence: `RRIRWRPPRLPRPRPRPKRNPRP`
0.432

Look up and report measured shrunken log2 fold change for this entry: `RRIRGRPPRLPRPRPRPFPAPRP`
0.757

Output measured shrunken log2 fold change for this item: `RRIRTRPPRLPRPRPRPSQHPRP`
-0.387

Answer with the recorded shrunken log2 fold change of `RRIRERPPRLPRPRPRPWMYPRP` only.
-0.508

Hello, please tell me recorded shrunken log2 fold change for this one: `RRIRCRPPRLPRPRPRPLFFPRP`
-0.273

Note down shrunken log2 fold change recorded for `RRIRDRPPRLPRPRPRPMCAPRP`
0.0829

Give shrunken log2 fold change for `RRIRVRPPRLPRPRPRPMNAPRP`
0.154

Read off the recorded shrunken log2 fold change for `RRIRERPPRLPRPRPRPMKGPRP`
-0.0658
